Measured t1/2 (HNO release half-life) values are reported for all entries that follow.
- PROCEDURE DETAILS: HNO release half-life of IL-NONOates in PBS, UV absorbance decay at 330 nm
- Type: physicochemical
- CONDITION SUMMARY: IL-NONOate formed from the IL; 37°C, pH 7.4, 0.01 M phosphate buffer (PBS)
REPORTED PROPERTY: t1/2 (HNO release half-life) (h)

In [3]: df
Out[3]:
                                   compound  scale_unit  numeric_readout
0  CCn1cc[n+](C)c1.NCCC(=O)[O-] [[EMIm][APA]]           h             16.6
1  CCn1cc[n+](C)c1.NCCCS(=O)(=O)[O-] [[EMIm][APS]]           h               16
2  CCCCCCCCCCCCCC[P+](CCCCCC)(CCCCCC)CCCCCC.NCCS(=O)(=O)[O-] [[P66614][Tau]]           h             5.42
3  CCn1cc[n+](C)c1.NCS(=O)(=O)[O-] [[EMIm][AMS]]           h              5.4
4   C[N+](C)(C)CCO.NCCC(=O)[O-] [[Ch][APA]]           h            17.68
